- Test system: LNCaP-Vancouver prostate cells
- testSummary: In vitro LNCaP Vancouver prostate cell proliferation assay in lipid reduced medium
- Format: cell-based
- conditionInfo: read-out: pIC50 LNCaP_Vancouver prostate cell (converted)
observedProperty: IC50 (nM)

a: Cc1cc(-c2ccc3[nH]ccc3c2)ccc1C1=NC2(CC2)C(=O)N1C[C@@H]1CCN(C(=O)C2CC2)C1 [compound 284]
b: Cc1cc(C2=NC3(CC3)C(=O)N2CC2CN(C(=O)C3CC3)C2)ccc1-c1ccc2[nH]ccc2c1 [compound 435]
Query string: Which gives the smaller IC50 number: a or b ? Please identify the chosen entry by its label.
Result string: a
(a: 38 nM, b: 3470 nM)

====

- target: hFASN enzyme (full length) (Homo sapiens, UniProt P49327)
- Construct: 10 μL hFASN enzyme (full length, 300 ng, purified in house); made in house
- Sequence (P49327 whole entry): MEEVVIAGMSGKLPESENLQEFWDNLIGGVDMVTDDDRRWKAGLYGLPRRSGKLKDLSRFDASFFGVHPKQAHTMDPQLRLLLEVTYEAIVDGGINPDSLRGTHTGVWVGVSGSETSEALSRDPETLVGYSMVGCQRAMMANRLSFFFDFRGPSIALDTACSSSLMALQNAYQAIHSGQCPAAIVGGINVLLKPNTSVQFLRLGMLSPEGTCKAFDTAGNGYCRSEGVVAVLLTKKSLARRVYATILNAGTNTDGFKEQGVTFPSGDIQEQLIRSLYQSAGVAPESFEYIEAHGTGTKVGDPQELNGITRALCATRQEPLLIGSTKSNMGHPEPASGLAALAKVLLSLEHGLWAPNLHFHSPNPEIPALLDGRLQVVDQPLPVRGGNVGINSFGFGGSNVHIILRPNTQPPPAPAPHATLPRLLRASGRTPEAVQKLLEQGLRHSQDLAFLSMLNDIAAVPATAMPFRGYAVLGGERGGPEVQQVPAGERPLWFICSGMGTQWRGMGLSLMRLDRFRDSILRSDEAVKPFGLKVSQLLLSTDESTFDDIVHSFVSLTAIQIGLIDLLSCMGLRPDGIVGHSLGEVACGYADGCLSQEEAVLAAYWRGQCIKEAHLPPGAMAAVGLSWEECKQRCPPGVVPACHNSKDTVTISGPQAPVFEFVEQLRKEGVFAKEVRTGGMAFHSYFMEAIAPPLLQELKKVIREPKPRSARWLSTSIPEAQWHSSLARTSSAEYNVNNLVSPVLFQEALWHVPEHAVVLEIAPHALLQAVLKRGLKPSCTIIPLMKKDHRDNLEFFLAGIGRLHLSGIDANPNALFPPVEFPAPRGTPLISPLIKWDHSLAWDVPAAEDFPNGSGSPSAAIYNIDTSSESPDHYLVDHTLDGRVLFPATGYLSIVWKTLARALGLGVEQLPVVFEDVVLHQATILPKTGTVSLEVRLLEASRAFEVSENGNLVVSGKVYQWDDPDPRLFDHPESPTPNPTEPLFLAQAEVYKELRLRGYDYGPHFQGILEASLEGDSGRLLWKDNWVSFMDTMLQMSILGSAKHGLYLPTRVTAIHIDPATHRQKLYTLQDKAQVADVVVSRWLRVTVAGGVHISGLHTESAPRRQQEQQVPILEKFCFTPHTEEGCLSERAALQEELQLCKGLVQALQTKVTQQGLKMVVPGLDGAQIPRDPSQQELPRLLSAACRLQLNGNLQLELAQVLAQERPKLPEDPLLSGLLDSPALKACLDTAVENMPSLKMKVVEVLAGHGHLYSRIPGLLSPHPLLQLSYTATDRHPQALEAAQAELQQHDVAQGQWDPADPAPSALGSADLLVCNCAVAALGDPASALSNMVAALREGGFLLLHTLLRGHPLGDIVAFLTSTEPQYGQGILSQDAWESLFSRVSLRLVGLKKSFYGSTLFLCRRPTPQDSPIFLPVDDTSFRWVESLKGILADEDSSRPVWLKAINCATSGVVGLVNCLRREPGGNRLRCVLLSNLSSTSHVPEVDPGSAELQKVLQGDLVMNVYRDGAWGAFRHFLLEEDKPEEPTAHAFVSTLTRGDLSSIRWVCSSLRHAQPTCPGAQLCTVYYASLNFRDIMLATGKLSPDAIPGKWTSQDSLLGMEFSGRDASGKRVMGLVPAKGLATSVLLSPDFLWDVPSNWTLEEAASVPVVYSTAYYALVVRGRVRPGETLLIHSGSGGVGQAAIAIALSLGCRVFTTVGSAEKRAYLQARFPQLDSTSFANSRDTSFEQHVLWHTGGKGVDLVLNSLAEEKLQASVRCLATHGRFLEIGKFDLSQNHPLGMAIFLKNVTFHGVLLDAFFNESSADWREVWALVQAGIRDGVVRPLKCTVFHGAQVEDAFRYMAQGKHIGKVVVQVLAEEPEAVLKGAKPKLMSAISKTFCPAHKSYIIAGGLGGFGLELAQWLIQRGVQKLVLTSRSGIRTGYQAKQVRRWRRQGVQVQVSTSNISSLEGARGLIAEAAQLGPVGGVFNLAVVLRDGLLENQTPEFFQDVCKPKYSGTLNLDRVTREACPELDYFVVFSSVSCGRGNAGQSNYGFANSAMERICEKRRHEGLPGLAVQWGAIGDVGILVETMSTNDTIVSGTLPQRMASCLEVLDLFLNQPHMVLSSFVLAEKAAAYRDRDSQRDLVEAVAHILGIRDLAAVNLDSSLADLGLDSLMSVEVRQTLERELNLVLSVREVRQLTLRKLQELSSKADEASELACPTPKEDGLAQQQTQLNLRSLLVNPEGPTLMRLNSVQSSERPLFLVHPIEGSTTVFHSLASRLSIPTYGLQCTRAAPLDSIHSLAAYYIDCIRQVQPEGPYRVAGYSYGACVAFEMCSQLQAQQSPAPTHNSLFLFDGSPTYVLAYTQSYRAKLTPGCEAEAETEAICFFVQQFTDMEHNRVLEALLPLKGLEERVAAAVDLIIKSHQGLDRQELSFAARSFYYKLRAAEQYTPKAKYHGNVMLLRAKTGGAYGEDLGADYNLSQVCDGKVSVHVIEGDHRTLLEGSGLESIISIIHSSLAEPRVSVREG
- testSummary: Fatty Acid Synthase (FASN) inhibition scintillation proximity assay
- Format: biochemical
- conditionInfo: read-out: Human FASN pIC50 (converted)
observedProperty: IC50 (µM)

> print(dat)
                                   molecule  observedproperty  measuredresult
1  Cc1cc(-c2ccc3c(cnn3C)c2)ccc1C1=NC2(CC2)C(=O)N1CC1CN(C(=O)C2CCCO2)C1 (stereo not shown) [compound 205]              IC50          0.0977
2  Cn1cc(-c2ccc(-c3ccc(C4=NC5(CC5)C(=O)N4CC4CN(C(=O)C5(O)CC5)C4)c(F)c3)cc2)cn1              IC50          0.0251

1: O=C(C1CC1)N1CC[C@@H](CN2C(=O)C3(CC3)N=C2c2ccc(-c3ccc4sccc4c3)cc2F)C1
2: Cc1cc2cc(-c3ccc(C4=NC5(CCN(C(=O)CN(C)C)CC5)C(=O)N4C[C@@H]4CCN(C(=O)C5CC5)C4)cc3)ccc2o1
3: O=C(C1CC1)N1CC[C@@H](CN2C(=O)C3(CC3)N=C2c2ccc(-c3cc4cc(Br)ccc4cn3)cc2)C1
4: Cn1nc(C2CC2)c2cc(-c3ccc(C4=NC5(CC5)C(=O)N4C[C@@H]4CCN(C(=O)C5CC5)C4)cc3)ccc21
Query string: I would appreciate it if you could sort these 4 molecules by IC50, starting from the smallest number. Use the labels to give the requested order.
Result string: 1, 4, 2, 3
(1: 0.0219 µM, 4: 0.151 µM, 2: 0.245 µM, 3: 1.38 µM)

====

- Test system: LNCaP-Vancouver prostate cells
- testSummary: In vitro LNCaP Vancouver prostate cell proliferation assay in lipid reduced medium
- Assay type: cell-based
- conditionInfo: read-out: pIC50 LNCaP_Vancouver prostate cell (converted)
observedProperty: IC50 (µM)

P: Cn1ncc2cc(-c3ccc(C4=NC5(CCOC5)C(=O)N4C[C@@H]4CCN(C(=O)C5CC5)C4)cc3)ccc21 (stereo partly drawn) [compound 690]
Q: Cc1cc2cc(-c3ccc(C4=NC5(CC5)C(=O)N4C[C@@H]4CCN(C(=O)C5CC5)C4)c(F)c3)ccc2[nH]1 [compound 319]
Query string: Problem: Given the entries P and Q , determine which has the lower reported IC50. // caller expects the label of the chosen entry
Result string: Q
(Q: 0.112 µM, P: 2.34 µM)

====

- target: hFASN enzyme (full length) (Homo sapiens, UniProt P49327)
- Construct: 10 μL hFASN enzyme (full length, 300 ng, purified in house); made in house
- testSummary: Fatty Acid Synthase (FASN) inhibition scintillation proximity assay
- Type: biochemical
- conditionInfo: read-out: Human FASN % inhibition @ 10 μM, 10 μM test compound
observedProperty: inhibition at 10 µM (%)

Example molecules with recorded inhibition at 10 µM:
> print(dat)
                                   molecule     observedproperty  measuredresult
1  O=C(C1CC1)N1CCC(CN2C(=O)C3(CC3)N=C2c2ccc(-c3ccc4ocnc4c3)cc2)CC1  inhibition at 10 µM            28.6
2  N#Cc1ccc2ccc(-c3ccc(C4=NC5(CC5)C(=O)N4CC4CN(C(=O)C5CC5)C4)c(F)c3)cc2c1  inhibition at 10 µM              94

a: O=C(C1CC1)N1CC[C@@H](CN2C(=O)C3(CCCC3)N=C2c2ccc(-c3cccc4[nH]ccc34)cc2)C1
b: O=C(C1CC1)N1CC(CN2C(=O)C3(CC3)N=C2c2ccc(-c3cc(C(F)(F)F)ccc3F)cc2F)C1
Query string: From the recorded data, which exceeds the other in inhibition at 10 µM: a or b ? Write the label of whichever entry you select.
Result string: a

P: CC(O)C(=O)N1CC(CN2C(=O)C3(CCOC3)N=C2c2ccc(-c3ccc4occc4c3)cc2)C1 (stereo not shown)
Q: COc1ccc2cc(-c3ccc(C4=NC5(CC5)C(=O)N4C[C@@H]4CCN(C(=O)C5(O)CC5)C4)cc3)ccc2c1
Query string: For the pair P and Q , which member has the lower inhibition at 10 µM number? Answer by quoting the chosen item's label.
Result string: P
